- assay-remarks: small-molecule binders of probe aNOTCH3, primary screen, biochemical, small-molecule microarray, 635/667 nm fluorescence (AID 1120);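 note: probe is a biotin-tagged antibody raised against NOTCH3 rather than NOTCH3 protein; score merges spot fluorescence near 667 nm with spot signal to noise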
- run-conditions: higher = more signal
Rule: yes for composite z-score not less than -0.004, no for anything less.

-- ask Quick check: does COc1c(C)cc(-c2cc3c(c(CCc4ccccc4)n2)[Si](C(C)C)(C(C)C)OC3)cc1C have composite z-score greater than or equal to -0.004?
-- reply yes

-- ask Proceed to O=C(O)[C@H]1C[C@H]2C(=O)NCC(=O)N2[C@H]1c1cccc(OCCO)c1
-- reply yes

-- ask Proceed to C=CCNC(=O)[C@@H]1[C@H]2C(=O)O[C@H](c3ccccc3)[C@H](c3ccccc3)N2[C@H](c2ccc(O)cc2)[C@@]12C(=O)Nc1ccccc12
-- reply no

-- ask Proceed to CC(C)C(CO)N1C(=O)[C@@H]2[C@H]3C(=O)OCC=C[C@H]3OC23C=CCN(Cc2ccccc2)C(=O)[C@@H]13 (some centres not stated)
-- reply yes

-- ask Proceed to Cc1ccc(S[C@]2(C(=O)NCCN3CCOCC3)CC(=O)N(Cc3cc(C(F)(F)F)cc(C(F)(F)F)c3)[C@@H]2c2ccc(CO)cc2)cc1
-- reply no

-- ask Proceed to CN1C=C(C(=O)OCCS(C)(=O)=O)C(C(=O)OCCS(C)(=O)=O)=CC(CCCO)=CC1c1cccs1 (configuration not stated)
-- reply no

-- ask Proceed to COCCOC(=O)N1C(=O)[C@@]2(c3cc(C#CCNC(N)=O)ccc31)[C@H](C(=O)NC[C@H](O)c1ccccc1)[C@H]1C(=O)O[C@H](c3ccccc3)[C@H](c3ccccc3)N1[C@@H]2c1ccc(O)cc1
-- reply no

----------
- assay-remarks: HEK293 cell cytotoxicity, cytotoxicity control, plate reader, single point, cherry-pick (AID 743190)
- run-conditions: at 25 µM
This is one part of the list.
Rule: True for activity change, negative = inhibition not less than -10%, False for anything less.

-- ask Quick check: does O=C(c1ccc(Cl)cc1)c1cnc(Nc2ccccc2)s1 have activity change, negative = inhibition greater than or equal to -10%?
-- reply False

-- ask Proceed to CCc1sc(C(=O)N2CCN(CC(=O)Nc3cccc(F)c3)CC2)cc1C
-- reply False

-- ask Proceed to Cc1ccc(C(=O)Nc2ccc3c(c2)OCO3)cc1S(=O)(=O)N1CCCCC1
-- reply True

-- ask Proceed to COc1ccc(Nc2ccc3ccccc3c2)cc1
-- reply True

-- ask Proceed to COc1ccc(CNC(=O)COc2ccccc2C(=O)c2cnn(-c3ccccc3)c2)cc1OC
-- reply False

-- ask Proceed to COc1cc2ccccc2cc1C(=O)Nc1ccccc1C
-- reply False

-- ask Proceed to CN(C)c1ccc(CSc2ccccc2)cc1
-- reply True

-- ask Proceed to CC(C)(C)NC(=O)Cn1nnc(-c2ccccc2Cl)n1
-- reply False

----------
- study-system: Calmodulin-1 (Homo sapiens) (UniProt P0DP23)
- assay-remarks: calcium-bound CALM1 binders on microarrays, profiling panel, artefact control for SMM control-protein annotation, biochemical, small-molecule microarray, Cy5-labelled CALM1, plus calcium (AID 1112);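 note: score merges spot fluorescence with signal to noise from triplicate slides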
- run-conditions: Cy5-CALM1 binding fluorescence, higher = more signal
readout: composite z-score
Answer using only a numeral; do not append any unit.

-- ask Quick one: composite z-score for CC(C)CNC(=O)[C@@H]1c2ccccc2C(=O)N(Cc2ccc(OC(F)(F)F)cc2)[C@H]1c1ccc(CO)cc1 ?
-- reply -0.614

-- ask Proceed to CC(C)C[C@@H]1NC(=O)[C@@]23C(=O)N[C@@H](Cc4ccccc4)C2[C@H](C)[C@@]2(C)O[C@H]2C3/C=C/C/C=C\CNC(=O)[C@H](Cc2ccccc2)NC1=O (stereo partly specified)
-- reply -0.485

-- ask Proceed to C=CCNC(=O)[C@@H]1[C@H]2C(=O)O[C@H](c3ccccc3)[C@H](c3ccccc3)N2[C@H](c2ccc(O)cc2)[C@@]12C(=O)N(C(=O)OCCOC)c1ccc(C#Cc3ccc(OC)cc3)cc12
-- reply 0.185

-- ask Proceed to C=CC[C@@H](OC(=O)Nc1ccc(SC)cc1)c1ccc(OCCO)cc1
-- reply 0.835

-- ask Proceed to COc1ccc([Si](C)(C)[C@H]2[C@H](CC(=O)N3Cc4ccccc4C[C@H]3CO)O[C@@]3(C(=O)N(Cc4cccc(N5C(=O)COc6ccccc65)c4)c4ccccc43)[C@@H]2C)cc1
-- reply -0.185

-- ask Proceed to COCCCNC(=O)[C@@]1(Cc2ccccc2CN=[N+]=[N-])COC(c2ccc(OCCCO)cc2)=N1
-- reply 0.96
